experiment: self-splicing fitness, log relative to wild type (ln ratio); higher = more splicing; Tetrahymena group I intron in knt gene, E. coli kanamycin selection, DiMSum; sequences stand for … in CUCUCU…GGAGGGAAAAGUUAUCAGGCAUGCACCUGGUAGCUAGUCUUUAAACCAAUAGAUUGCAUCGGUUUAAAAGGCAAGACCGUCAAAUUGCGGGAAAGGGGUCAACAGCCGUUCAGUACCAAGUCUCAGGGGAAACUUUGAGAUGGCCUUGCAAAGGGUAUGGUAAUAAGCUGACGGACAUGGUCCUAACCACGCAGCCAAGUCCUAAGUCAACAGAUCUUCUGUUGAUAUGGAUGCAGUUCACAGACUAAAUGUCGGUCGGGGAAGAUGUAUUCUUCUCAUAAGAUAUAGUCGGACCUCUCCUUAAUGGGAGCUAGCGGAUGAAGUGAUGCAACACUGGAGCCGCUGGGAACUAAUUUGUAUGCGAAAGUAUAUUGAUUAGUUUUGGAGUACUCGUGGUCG; details: 30 °C;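 note: selection with 25 µg/mL kanamycin versus none on LB agar overnight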
Outcome: Fulfilled for self-splicing fitness (ln) of at least -2; Not fulfilled for anything lower.

biopolymerSequence: UUUAAGCAAUAUUACGCGUU
label: Not fulfilled

biopolymerSequence: GCAUAGCAAUAUUACGUCGG
label: Not fulfilled

biopolymerSequence: ACGAAGCAAUAUUACGGACG
label: Fulfilled

biopolymerSequence: CUUUAGCAAUAUUACGAUGC
label: Not fulfilled

Prompt line: Is reported self-splicing fitness (ln) greater than or equal to -2 here: `GGCCAGCAAUAUUACGUGAG`
Response line: Not fulfilled

Prompt line: Is reported self-splicing fitness (ln) greater than or equal to -2 here: `UUUGAGCAAUAUUACGACGG`
Response line: Fulfilled

Prompt line: Is reported self-splicing fitness (ln) greater than or equal to -2 here: `UCGCAGCAAUAUUACGAGAA`
Response line: Fulfilled

Prompt line: Is reported self-splicing fitness (ln) greater than or equal to -2 here: `UGUCAGCAAUAUUACGACGC`
Response line: Not fulfilled

Prompt line: Is reported self-splicing fitness (ln) greater than or equal to -2 here: `CAGAAGCAAUAUUACGUUUG`
Response line: Not fulfilled

Prompt line: Is reported self-splicing fitness (ln) greater than or equal to -2 here: `UGAGAGCAAUAUUACGGAAG`
Response line: Not fulfilled

Prompt line: Is reported self-splicing fitness (ln) greater than or equal to -2 here: `UUAAAGCAAUAUUACGACGC`
Response line: Fulfilled

Prompt line: Is reported self-splicing fitness (ln) greater than or equal to -2 here: `GUCCAGCAAUAUUACGGCCA`
Response line: Fulfilled

Prompt line: Is reported self-splicing fitness (ln) greater than or equal to -2 here: `CUCCAGCAAUAUUACGCGCU`
Response line: Not fulfilled

Prompt line: Is reported self-splicing fitness (ln) greater than or equal to -2 here: `CCGAAGCAAUAUUACGUGAU`
Response line: Not fulfilled

Prompt line: Is reported self-splicing fitness (ln) greater than or equal to -2 here: `UGAGAGCAAUAUUACGAAUU`
Response line: Not fulfilled

Prompt line: Is reported self-splicing fitness (ln) greater than or equal to -2 here: `UUUCAGCAAUAUUACGGAAU`
Response line: Not fulfilled
